System: pyruvate oxidation of isolated rat liver mitochondria
Assay: ADP-stimulated pyruvate oxidation of isolated rat liver mitochondria (high-resolution respirometry)
Format: biochemical
Conditions: isolated rat liver mitochondria; 3 min preincubation with drug, 1 mM ATP, 5 mM MgCl2; 10 mM pyruvate, 5 mM malate, ADP; read-out: Apparent IC50 of inhibition of pyruvate oxidation
Assignment: determine reported IC50 for the given molecules.
Write the answer as a number in µM, unit excluded.

stdin: Item CCCC(CCC)C(=O)O [VPA, Valproic acid] has what recorded IC50?
stdout: 50

stdin: Item CCCC(C(N)=O)C(C)CC (stereo not shown) [SPD, sec-Butylpropylacetamide] has what recorded IC50?
stdout: 3000

stdin: Item CCCC(CCC)C(N)=O [VPD, Valpromide] has what recorded IC50?
stdout: 5000

stdin: Item CCCC(C(=O)O)C(C)CC (stereo not shown) [SPA, sec-Butylpropylacetic acid] has what recorded IC50?
stdout: 50
